Measurement protocol: Solubility Test (amount of methylene chloride to completely dissolve 1 g of compound)
Type: physicochemical
Cond: room temperature, methylene chloride added dropwise while stirring
Give Amount of methylene chloride required to dissolve 1 g of a compound for every item shown.
Give bare numbers, in g.

Solved entries (count: 3):
# Molecule, Measured number
measured = [
    ("CCC(c1ccccc1)N1C(=O)c2ccc3c4c(ccc(c24)C1=O)C(=O)N(C(CC)c1ccccc1)C3=O (stereo not shown)", 2),
    ("CC(C)N1C(=O)c2ccc3c4c(ccc(c24)C1=O)C(=O)N(C(C)C)C3=O", 25),
    ("CCC(CC)N1C(=O)c2ccc3c4c(ccc(c24)C1=O)C(=O)N(C(CC)CC)C3=O [Comparative Compound (10a)]", 17.5),
]

Prompt: Form field: reported Amount of methylene chloride required to dissolve 1 g of a compound of CC(c1ccccc1)N1C(=O)c2ccc3c4c(ccc(c24)C1=O)C(=O)N(C(C)c1ccccc1)C3=O (stereo not shown)
Response: 3.5

Sourced from patent US7396624B2
